Test system: COLO 205 colon
ASSAY_DETAILS: NCI tumour cell line growth inhibition, 48 h
TEST_READOUT: TGI

Some compounds with known TGI results, for comparison:
// returns reported TGI for input Cc1ncc(-c2ccnc(Nc3ccc(S(C)(=O)=O)cc3)n2)n1C(C)C
2.37 µM

// returns reported TGI for input CC(C)[C@](O)(C(=O)OCC1=CCN2CC[C@@H](O)[C@@H]12)[C@H](C)O
> 375 µM

// returns reported TGI for input O[C@H]1[C@H](O)[C@@H](Cn2nnc(-c3ccccc3)c2-c2ccccc2)OCO[C@@H]1Cn1nnc(-c2ccccc2)c1-c1ccccc1
12.2 µM

// returns reported TGI for input COc1cc(Nc2nc3ccccc3nc2C(C)C)cc(OC)c1OC
> 100 µM

// returns reported TGI for input COc1ccc(N(C(=O)NCCO)c2ccccc2)cc1
> 100 µM

// returns reported TGI for input COc1ccc(/C(=N/O)c2cc(OC)c(OC)c(OC)c2)c(OC)c1N
13.5 µM

// returns reported TGI for input CCc1ncnc2cc(OCC3CO3)c(OC)cc12 (stereo not given)
21.8 µM

// returns reported TGI for input COc1ccc(C#CC2=C(c3cc(OC)c(OC)c(OC)c3)C(=O)OC2)cc1
> 50 µM

// returns reported TGI for input Cc1cc(=O)c2ccccc2n1CCCCCCCCCCn1c(C)cc(=O)c2ccccc21
51.9 µM

Below: the item to evaluate.
// returns reported TGI for input COC(=O)c1ccc(C)cc1CC1Cc2c(C)cccc2C1=O (stereo not given)
17 µM
